- Tested System: PKC delta kinase (Homo sapiens)
- Sequence (Q05655 whole entry): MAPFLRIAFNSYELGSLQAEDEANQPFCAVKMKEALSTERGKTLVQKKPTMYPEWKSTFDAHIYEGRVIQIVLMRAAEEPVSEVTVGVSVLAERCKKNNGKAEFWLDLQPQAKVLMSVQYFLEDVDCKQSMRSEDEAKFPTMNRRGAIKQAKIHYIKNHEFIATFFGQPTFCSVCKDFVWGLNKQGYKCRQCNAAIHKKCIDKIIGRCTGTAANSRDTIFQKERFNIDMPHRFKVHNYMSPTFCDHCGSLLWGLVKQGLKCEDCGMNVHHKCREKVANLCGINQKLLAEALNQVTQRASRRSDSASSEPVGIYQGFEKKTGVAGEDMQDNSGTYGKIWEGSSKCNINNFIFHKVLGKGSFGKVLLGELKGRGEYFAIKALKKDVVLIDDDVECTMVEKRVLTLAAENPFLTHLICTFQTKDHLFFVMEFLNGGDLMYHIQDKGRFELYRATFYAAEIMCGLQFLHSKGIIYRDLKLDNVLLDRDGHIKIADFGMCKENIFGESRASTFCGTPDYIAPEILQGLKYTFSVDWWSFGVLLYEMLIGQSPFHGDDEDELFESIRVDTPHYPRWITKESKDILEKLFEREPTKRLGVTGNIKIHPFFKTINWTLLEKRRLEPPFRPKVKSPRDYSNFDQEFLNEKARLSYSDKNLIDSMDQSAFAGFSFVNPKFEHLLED
- Assay Explanation: PKC delta kinase inhibition, coupled-enzyme (NADH absorbance) assay, Ki
- Type: biochemical
- Study Conditions: 150 μM ATP, 46 nM PKC delta kinase, 30° C.; read-out: Ki PKC delta
- Method: An assay buffer solution was prepared which consisted of 100 mM HEPES (pH 7.5), 10 mM MgCl2, 25 mM NaCl, 0.1 mM EDTA and 0.01% Brij. […] To 16 μL of this enzyme buffer, in a 384 well plate, was added 1 μL of VRT stock solution in DMSO. […] Initial rate data was determined from the rate of change of absorbance at 340 nm (corresponding to stoichiometric consumption of NADH) using a Molecular Devices Spectramax plate reader (Sunnyvale, Calif.) over 15 mins at 30° C. […]
Measurement Label: Ki

>>> df
                                    compound  experimental_value
 0  CC1CN(c2ccc(F)c(-c3n[nH]c4ncccc34)n2)CC(C2(O)CCC2)N1 (stereo not drawn)           > 1.25 µM
 1  CC1(C)CC1(O)C1CN(c2ccc(F)c(-c3n[nH]c4ncccc34)n2)CCN1 (stereo not drawn) [Compound 288]            < 0.5 µM
 2  CC(C)CC1(N)CCCN(c2ccc(F)c(-c3n[nH]c4ncccc34)n2)C1 (stereo not drawn)           > 1.25 µM
 3  CCC[C@H]1CN(c2ccc(F)c(-c3n[nH]c4ncccc34)n2)C[C@H]1N           > 1.25 µM
 4  CN1CCN(c2ccc(F)c(-c3n[nH]c4ncccc34)n2)CC1           > 1.25 µM
 5  CC(C)CC1(C)CN(c2ccc(F)c(-c3n[nH]c4ncccc34)n2)CCC1N (stereo not drawn)            < 0.5 µM
 6  CC(C)CC1(C#N)CCN(c2ccc(C(F)(F)F)c(-c3n[nH]c4ncccc34)n2)CC1           > 1.25 µM
 7   Clc1cnc2[nH]nc(-c3cccc(N4CCNCC4)n3)c2c1            < 0.5 µM
 8  COC[C@H]1CN(c2cccc(-c3n[nH]c4ncccc34)n2)CCN1            < 0.5 µM
 9  CC(=O)N1CCN(c2cccc(-c3n[nH]c4ncccc34)n2)CC1              > 2 µM
10  CCC(C)(O)C1CN(c2ccc(F)c(-c3n[nH]c4ncccc34)n2)CCN1 (stereo not drawn) [Compound 242]            < 0.5 µM
11  CC(O)C1CN(c2cccc(-c3n[nH]c4ncccc34)n2)CCN1 (stereo not drawn)            < 0.5 µM
12    Cc1cc(-c2n[nH]c3ncccc23)nc(N2CCNCC2)c1              > 2 µM
13  CC(C)C(C)(O)C1CN(c2cc(CO)cc(-c3n[nH]c4ncccc34)n2)CCN1 (stereo not drawn)            < 0.5 µM
14  Cc1cccc(C2CN(c3ccc(C(F)(F)F)c(-c4n[nH]c5ncccc45)n3)CCN2)c1 (stereo not drawn)            < 2.8 µM
15  CC(=O)NCC1CCCN(c2ccc(F)c(-c3n[nH]c4ncccc34)n2)C1 (stereo not drawn)           > 1.25 µM
16  NC1CCN(c2ccc(C(F)(F)F)c(-c3n[nH]c4ncccc34)n2)CC12CCOCC2 (stereo not drawn)            < 2.8 µM
17  CC(C)CC1(CN)CN(c2ccc(C(F)(F)F)c(-c3n[nH]c4ncccc34)n2)CCO1 (stereo not drawn)            < 0.5 µM
18    CN1CCN(c2cccc(-c3n[nH]c4ncccc34)n2)CC1              > 2 µM
19  CCC(CC)C(N)C1CCCN(c2ccc(F)c(-c3n[nH]c4ncccc34)n2)C1 (stereo not drawn) [Compound 391]            < 2.8 µM
20  CC(C)C[C@H]1CN(c2ccc(C(F)(F)F)c(-c3n[nH]c4ncccc34)n2)CC[C@@H]1O              > 2 µM
21  CO[C@H]1CN(c2ccc(C(F)(F)F)c(-c3n[nH]c4ncccc34)n2)CC[C@H]1N           > 1.25 µM
22  FC(F)(F)c1ccc(N2CCC(N3CCCCC3)CC2)nc1-c1n[nH]c2ncccc12           > 1.25 µM
23  CC(C)(O)C1CN(c2cccc(-c3n[nH]c4ncccc34)n2)CCN1 (stereo not drawn)            < 0.5 µM
24  CN(C)CC1CCCN(c2ccc(F)c(-c3n[nH]c4ncccc34)n2)C1 (stereo not drawn)           > 1.25 µM
25  Fc1ccc(N2CCN[C@@H](CC3CC3)C2)nc1-c1n[nH]c2ncccc12           > 1.25 µM
26  CC(C)(F)C1CN(c2cccc(-c3n[nH]c4ncccc34)n2)CCN1 (stereo not drawn)            < 0.5 µM
27  c1cc(-c2n[nH]c3ncccc23)nc(N2CCNC3(CCC3)C2)c1           < 0.05 µM
28  NC1CCN(c2ccc(C(F)(F)F)c(-c3n[nH]c4ncccc34)n2)CC1           > 1.25 µM
29  CC(C)(C)C(N)C1CCCN(c2ccc(F)c(-c3n[nH]c4ncccc34)n2)C1 (stereo not drawn) [Compound 307]           < 0.05 µM
30  C[C@](O)(c1ccccc1)[C@@H]1CN(c2ccc(F)c(-c3n[nH]c4ncccc34)n2)CCN1           > 1.25 µM
31  CC(C)C(N)[C@H]1CCCN(c2ccc(F)c(-c3n[nH]c4ncccc34)n2)C1 (stereo partly drawn)           > 1.25 µM
32  CC(C)C[C@H]1CN(c2ccc(C(F)(F)F)c(-c3n[nH]c4ncccc34)n2)CC(F)(F)CN1           > 1.25 µM

The reported numbers originate from patent US9193722B2.
